# target: Squalene monooxygenase (Sus scrofa)
# test_protocol: The compound was tested for its inhibitory activity against pig Squalene epoxidase at pH 8.8
metric: pIC50
pIC50 is defined as minus the log10 of a concentration measured in mol/L.

Ask: Which value of pIC50 has been reported for `CC(C)=CCC/C(=C/CC/C(C)=C/CC/C=C(\C)CC/C=C(\C)CCC=C(C)C)CN` in the records?
Result: 4.49
